Target: Glucose transporter (Leishmania mexicana) (UniProt O61059)
Test: ST_JUDE_LEISH: Cytotoxicity at 2uM final concentration against transgenic Leishmania Mexicana promastigotes LmGT2 that are glucose transport deficient and complemented with the L. Mexicana glucose transporter 2. Activity is measured by DNA content using SYBR green in vitro
Type: functional
measured_metric: inhibition (%)
Response body: numeric value in %, unit text excluded.

Worked examples follow.
compound	measurement_units	inhibition
C=C[C@]1(C)C[C@@H](OC(=O)c2n[nH]c3ccccc3c2=O)[C@]2(C)[C@H](C)CC[C@]3(CCC(=O)[C@H]32)[C@@H](C)[C@@H]1O	%	-0.71
CN(C(=O)c1ccccc1)C1c2cc(C#N)ccc2OC(C)(C)C1O (centres undefined)	%	0.38
CCCCCCNC(=O)c1nn(CCN2CCC(N3CCCC3)CC2)cc1-c1ccc(Cl)c(Cl)c1	%	1.8

Okay, next one:
For reference, reported inhibition for c1cc(CNCCc2ccncc2)cc(-c2csc(-c3nc4ccccc4[nH]3)c2)c1 stands at 1.05

---

Molecular target: Solute carrier family 2, facilitated glucose transporter member 1 (Homo sapiens)
Test: ST_JUDE_LEISH: Cytotoxicity at 2uM final concentration against transgenic Leishmania Mexicana promastigotes LmGLUT1 that are glucose transport deficient and complemented with the human glucose transporter GLUT1. Activity is measured by DNA content using SYBR green in vitro
Type: functional
measured_metric: inhibition (%)
Response body: numeric value in %, unit text excluded.

compound	observed_value
O=C(Nc1cccc(-c2ccc(-c3nc4ccccc4[nH]3)cc2)c1)c1ccncc1	8.95
CCN(CCCN1CCCCC1)c1cc(C)nc(Nc2ccc(C)cc2Br)n1	4.17
Cc1c(-c2ccc3c(c2)C(NCCCN2CCCCC2)CC3)cnc(N)c1C (centres undefined)	0.7

Readout inhibition for CC(C)C[C@H](NC(=O)c1cc2ccccc2s1)C(=O)N[C@H]1CCN(Cc2ccc(OCCCN(C)C)c(Cl)c2)C1 , test system Solute carrier family 2, facilitated glucose transporter member 1 (Homo sapiens), was 3.21

Readout inhibition for CC(C)(C)c1cc(C(=O)N2CCC(c3ccccn3)CC2)n(Cc2ccccc2)n1 , test system Solute carrier family 2, facilitated glucose transporter member 1 (Homo sapiens), was 0.22

---

Biological target: Hexose transporter 1 (Plasmodium falciparum)
Assay: ST_JUDE_LEISH: Cytotoxicity at 2uM final concentration against transgenic Leishmania Mexicana promastigotes LmPfHT that are glucose transport deficient and complemented with the Plasmodium falciparum hexose transporter. Activity is measured by DNA content using SYBR green in vitro
Type: functional
measured_metric: inhibition

molecule	inhibition
CC(=O)Oc1ccc(C(=O)Oc2ccccc2C#CC#N)cc1OC(C)=O	0.93%

Readout inhibition for O=C(Nc1cccc(C(F)(F)F)c1)Nc1ccc(Cl)c(C(F)(F)F)c1 , test system Hexose transporter 1 (Plasmodium falciparum), was -2.17%

Readout inhibition for Cc1cc(=O)[nH]c2cc(Nc3ccnc(Nc4cccc(C(N)=O)c4)n3)ccc12 , test system Hexose transporter 1 (Plasmodium falciparum), was 3.83%

Readout inhibition for Clc1ccc(CNCCCCCCCNCc2ccc(Cl)c(Cl)c2)cc1Cl , test system Hexose transporter 1 (Plasmodium falciparum), was -1.24%

Readout inhibition for N#Cc1cccc(CN(Cc2ccc(Cl)c(Cl)c2)S(=O)(=O)c2cccc([N+](=O)[O-])c2)c1 , test system Hexose transporter 1 (Plasmodium falciparum), was -0.37%

Readout inhibition for COc1ccc(-c2ccc(NC(=O)c3cccc(C#N)c3)cc2)cc1CN1CCC(O)CC1 , test system Hexose transporter 1 (Plasmodium falciparum), was -0.84%

Readout inhibition for O=C(Nc1ccc(Cl)cc1)c1ccc(CN2CCCN(Cc3ccccc3)CC2)cc1 , test system Hexose transporter 1 (Plasmodium falciparum), was 3.72%

Readout inhibition for COc1cccc(NC(=O)NC2CCN(c3ccnc(Nc4cc(OC)c(OC)c(OC)c4)n3)C2)c1 (stereo not drawn) , test system Hexose transporter 1 (Plasmodium falciparum), was -1.6%

Readout inhibition for O=C1CCCN1CCCNCc1ccc(-c2cccc(-c3nc4cc(C(F)(F)F)ccc4[nH]3)c2)cc1 , test system Hexose transporter 1 (Plasmodium falciparum), was -0.32%

Readout inhibition for COc1ccc2[nH]ccc(=NN=Cc3ccccc3)c2c1 , test system Hexose transporter 1 (Plasmodium falciparum), was 9.86%
